assay_target: Melanin-concentrating hormone receptor 1 (Homo sapiens, UniProt Q99705)
Sequence (Q99705 whole entry): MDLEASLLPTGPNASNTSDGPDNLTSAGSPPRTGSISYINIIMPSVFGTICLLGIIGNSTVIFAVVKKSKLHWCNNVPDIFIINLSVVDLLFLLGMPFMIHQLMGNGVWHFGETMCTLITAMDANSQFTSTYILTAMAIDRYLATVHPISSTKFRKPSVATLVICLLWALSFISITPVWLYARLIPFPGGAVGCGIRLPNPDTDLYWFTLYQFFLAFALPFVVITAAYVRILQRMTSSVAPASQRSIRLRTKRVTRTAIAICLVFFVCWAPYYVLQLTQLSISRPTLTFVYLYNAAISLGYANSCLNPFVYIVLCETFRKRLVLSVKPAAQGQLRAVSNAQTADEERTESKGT
method_notes: Antagonist activity at human MCHR1 expressed in CHO cells assessed as inhibition of MCH-stimulated Ca2+ mobilization measured every 2 secs by fluorometric analysis
Type: functional, cell-based
value_type: IC50 (nM)
Give the value in nM but do not write nM after it.

smiles_text	assay_target	IC50 / nM
Cc1c2cc(-n3ccc(OCc4ccc(Cl)cc4)cc3=O)ccc2nn1C1CC1	Melanin-concentrating hormone receptor 1 (Homo sapiens, UniProt Q99705)	33

For the next question, use this molecule.
Measured on Melanin-concentrating hormone receptor 1 (Homo sapiens, UniProt Q99705), `Cc1c2cc(-n3ccc(OCc4csc(C(F)(F)F)c4)cc3=O)ccc2nn1C1CC1` has a documented IC50 of 79
